molecular target: human adrenergic-α2C receptor (Homo sapiens); construct: expressed in transfected cells; membrane preparation; assay: Radioligand binding experiment for α2C-adrenoceptor ([3H]-raulwolscine competition, CHO cell membranes); settings: [3H]raulwolscine 1 nM, membranes of CHO cells transfected with human α2C receptor; read-out: pIC50 α2C (converted)
Sequence (P18825 whole entry): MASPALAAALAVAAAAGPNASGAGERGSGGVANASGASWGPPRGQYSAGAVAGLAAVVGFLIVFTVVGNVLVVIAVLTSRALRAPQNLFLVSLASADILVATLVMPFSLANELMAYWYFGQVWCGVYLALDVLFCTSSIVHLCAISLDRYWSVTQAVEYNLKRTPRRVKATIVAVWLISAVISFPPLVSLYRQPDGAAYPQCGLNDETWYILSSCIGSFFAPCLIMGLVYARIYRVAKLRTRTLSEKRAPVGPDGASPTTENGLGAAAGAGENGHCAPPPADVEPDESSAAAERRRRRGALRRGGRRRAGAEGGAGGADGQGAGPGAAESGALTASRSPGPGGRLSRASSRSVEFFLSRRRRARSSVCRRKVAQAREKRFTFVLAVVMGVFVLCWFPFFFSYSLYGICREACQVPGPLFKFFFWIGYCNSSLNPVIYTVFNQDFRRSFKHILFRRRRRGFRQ
measurement_kind: IC50 (nM)
Write the answer as a number in nM, unit excluded.

Known results for compounds:
COc1ccc(N2CCN(c3ccc(-n4cnn(CCNCCOc5ccccc5)c4=O)cc3)CC2)cc1 [compound 8]; 15.8
O=c1n(CC2CCN(CCOc3ccccc3)CC2)cnn1CCN1CCN(c2cccc3c2OCCO3)CC1 [compound 127]; 3.98

The record that follows has no IC50 shown yet.
Tested on human adrenergic-α2C receptor (Homo sapiens): NCc1ccc(Cn2cnn(CCNCCOc3ccccc3)c2=O)cc1 [compound 85] . Observed IC50: 6.31

---

Reported IC50 by item:
target: human adrenergic-α2C receptor (Homo sapiens); construct: expressed in transfected cells; membrane preparation; test: Radioligand binding experiment for α2C-adrenoceptor ([3H]-raulwolscine competition, CHO cell membranes); settings: [3H]raulwolscine 1 nM, membranes of CHO cells transfected with human α2C receptor; read-out: pIC50 α2C (converted)
Write the answer as a number in nM, unit excluded.

C/C(=C\c1ccccc1)CN1CCC(n2ncn(-c3ccc(CN4C(=O)c5ccccc5C4=O)cc3)c2=O)CC1 [compound 109]; 2
O=c1n(CCN2CCOCC2)cnn1CC1CCN(CCOc2ccccc2)CC1 [compound 71]; 20

The record that follows has no IC50 shown yet.
Tested on human adrenergic-α2C receptor (Homo sapiens): CN1CCCN(c2ccc(-n3cnn(CC4CCN(CCOc5ccccc5)CC4)c3=O)cc2)CC1 [compound 60] . Observed IC50: 2

---

Target: human adrenergic-α2A receptor (Homo sapiens)
Construct: expressed in transfected cells; membrane preparation
Sequence (P08913 1-465): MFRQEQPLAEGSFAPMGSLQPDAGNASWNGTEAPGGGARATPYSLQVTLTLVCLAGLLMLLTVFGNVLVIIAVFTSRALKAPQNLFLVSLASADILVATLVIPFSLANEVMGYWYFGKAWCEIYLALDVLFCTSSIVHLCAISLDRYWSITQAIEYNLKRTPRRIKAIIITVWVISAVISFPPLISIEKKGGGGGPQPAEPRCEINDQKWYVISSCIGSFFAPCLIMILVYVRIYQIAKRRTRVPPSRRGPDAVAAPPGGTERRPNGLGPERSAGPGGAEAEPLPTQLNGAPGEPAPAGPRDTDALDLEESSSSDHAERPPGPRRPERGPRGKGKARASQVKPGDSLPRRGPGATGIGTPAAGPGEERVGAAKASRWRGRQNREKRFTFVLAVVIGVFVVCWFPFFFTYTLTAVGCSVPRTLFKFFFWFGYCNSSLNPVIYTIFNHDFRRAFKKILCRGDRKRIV
Assay: Radioligand binding experiment for α2A-adrenoceptor ([3H]-raulwolscine competition, CHO cell membranes)
Conditions: [3H]raulwolscine 1 nM, membranes of CHO cells transfected with human α2A receptor; read-out: pIC50 α2A (converted)
measurement_kind: log10 of IC50 (log10 of the value in nM)
Each number you see is log10 of IC50, and the unit inside the log is nM.

O=c1n(CCNCCOc2ccccc2)nnn1-c1ccc(CN2CCC(O)CC2)cc1; 2.70
C/C(=C\c1ccccc1)CN1CCC(n2cnn(CCNCCOc3ccccc3)c2=O)CC1 [compound 29]; 2.00
COc1ccccc1C1CCN(C(C)C(C)n2ncn(-c3ccc(N4CCN(c5ccc(O)cc5)CC4)cc3)c2=O)C1 (stereo not shown); 3.10
O=c1n(-c2ccc(CN3CCc4ccccc4C3)cc2)cnn1CCNCCOc1ccccc1; 1.40
O=c1n(-c2ccc(N3CCN(Cc4ccccc4)CC3)cc2)cnn1CC1CCN(CCOc2ccccc2)CC1; 2.20
CN1CCCN(Cc2ccc(-n3cnn(CCNCCOc4ccccc4)c3=O)cc2)CC1; 1.80
O=c1n(-c2ccc3c(c2)CCN(Cc2ccc(F)cc2)C3)cnn1CCNCCOc1ccccc1; 2.40
CN(C)CCNc1ccc(-n2cnn(CCNCCOc3ccccc3)c2=O)cc1 [compound 87]; 1.50
C/C(=C\c1ccccc1)CN1CCC(n2cnn(CCCN3C(=O)c4ccccc4C3=O)c2=O)CC1; 2.50
O=c1n(-c2ccc(CN3CCOCC3)cc2)cnn1CC1CCN(Cc2cc3ccccc3o2)CC1; 3.50

Tested on human adrenergic-α2A receptor (Homo sapiens): COc1ccccc1C1CCN(c2ccc(-n3cnn(CCNCCOc4ccccc4)c3=O)cc2)C1 (stereo not shown) . Observed log10 of IC50: 2.90

Tested on human adrenergic-α2A receptor (Homo sapiens): C/C(=C\c1ccccc1)CN1CCC(n2ncn(-c3ccc(CN4C(=O)c5ccccc5C4=O)cc3)c2=O)CC1 . Observed log10 of IC50: 1.50

Tested on human adrenergic-α2A receptor (Homo sapiens): CN(Cc1ccccc1)C(=O)Cn1cnn(CC2CCN(CCOc3ccccc3)CC2)c1=O . Observed log10 of IC50: 2.10

Tested on human adrenergic-α2A receptor (Homo sapiens): O=c1n(CC2CCN(CCOc3ccccc3)CC2)cnn1CCN1CC2CC=CCC1CN2c1ccc2ccccc2c1 (stereo not shown) . Observed log10 of IC50: 2.10

---

target: human adrenergic-α2A receptor (Homo sapiens); construct: expressed in transfected cells; membrane preparation; assay: Radioligand binding experiment for α2A-adrenoceptor ([3H]-raulwolscine competition, CHO cell membranes); conditions: [3H]raulwolscine 1 nM, membranes of CHO cells transfected with human α2A receptor; read-out: pIC50 α2A (converted)
measurement_kind: IC50 (nM)
Write the answer as a number in nM, unit excluded.

Known results for compounds:
CC(NCCOc1ccccc1)C(C)n1ncn(-c2ccc(N3CCN(c4ccc(O)cc4)CC3)cc2)c1=O (single isomer, unassigned) [compound 7]; 126
CN(C)CCNc1ccc(-n2cnn(CC3CCN(CCOc4ccccc4)CC3)c2=O)cc1 [compound 38]; 25.1

For reference, reported IC50 for CS(=O)(=O)N1CCc2cc(-n3cnn(CCNCCOc4ccccc4)c3=O)ccc2C1 [compound 101] stands at 631

Source listed as patent US20100029620A1.
